The origin of these recorded values is ChEMBL document CHEMBL4004878.

# Test system: Streptococcus pyogenes
# assayRemarks: Bactericidal activity against Streptococcus pyogenes 01-968 expressing inducible ermA incubated for 20 to 24 hrs followed by sub-culturing for 24 hrs in absence of compound
# Assay type: functional
assayReadout: MBC

Q) Fill in: MBC of `C#CCN(C)[C@H]1C[C@@H](C)O[C@@H](O[C@@H]2[C@@H](C)C(=O)[C@@H](C)C(=O)O[C@H](CC)[C@@]3(C)OC(=O)O[C@@H]3[C@@H](C)/C(=N/OC/C=C/c3cnc4ccccc4c3)[C@H](C)C[C@@]2(C)OC)[C@@H]1O` is ___
A) > 4 µg/mL

Q) Fill in: MBC of `CC[C@H]1OC(=O)[C@H](C)C(=O)[C@H](C)[C@@H](O[C@@H]2O[C@H](C)C[C@H](N(C)C)[C@H]2O)[C@](C)(OC)C[C@@H](C)C(=O)[C@H](C)[C@H]2N(CCCCn3cnc(-c4cccnc4)c3)C(=O)O[C@]12C` is ___
A) 0.125 to 0.5 µg/mL

Q) Fill in: MBC of `CC[C@H]1OC(=O)[C@H](C)C(=O)[C@H](C)[C@@H](O[C@@H]2O[C@H](C)C[C@H](N(C)C)[C@H]2O)[C@](C)(OC)C[C@@H](C)/C(=N\OC/C=C/c2cnc3ccccc3c2)[C@H](C)[C@H]2OC(=O)O[C@@]21C` is ___
A) > 0.5 µg/mL

Q) Fill in: MBC of `CC[C@H]1OC(=O)[C@H](C)C(=O)[C@H](C)[C@@H](O[C@@H]2O[C@H](C)C[C@H](N(C)C)[C@H]2O)[C@](C)(OC)C[C@@H](C)/C(=N\OCC#Cc2cncc3ccccc23)[C@H](C)[C@H]2OC(=O)O[C@@]21C` is ___
A) > 2 µg/mL

Q) Fill in: MBC of `CC[C@H]1OC(=O)[C@H](C)[C@@H](O[C@H]2C[C@@](C)(OC)[C@@H](O)[C@H](C)O2)[C@H](C)[C@@H](O[C@@H]2O[C@H](C)C[C@H](N(C)C)[C@H]2O)[C@](C)(OC)C[C@@H](C)C(=O)[C@H](C)[C@@H](O)[C@]1(C)O` is ___
A) > 8 µg/mL
